Taken from the supplement of paper PMC7877785.

- Experiment summary: self-splicing fitness, log relative to wild type (ln ratio); higher = more splicing; Tetrahymena group I intron in knt gene, E. coli kanamycin selection, DiMSum; sequences stand for … in CUCUCU…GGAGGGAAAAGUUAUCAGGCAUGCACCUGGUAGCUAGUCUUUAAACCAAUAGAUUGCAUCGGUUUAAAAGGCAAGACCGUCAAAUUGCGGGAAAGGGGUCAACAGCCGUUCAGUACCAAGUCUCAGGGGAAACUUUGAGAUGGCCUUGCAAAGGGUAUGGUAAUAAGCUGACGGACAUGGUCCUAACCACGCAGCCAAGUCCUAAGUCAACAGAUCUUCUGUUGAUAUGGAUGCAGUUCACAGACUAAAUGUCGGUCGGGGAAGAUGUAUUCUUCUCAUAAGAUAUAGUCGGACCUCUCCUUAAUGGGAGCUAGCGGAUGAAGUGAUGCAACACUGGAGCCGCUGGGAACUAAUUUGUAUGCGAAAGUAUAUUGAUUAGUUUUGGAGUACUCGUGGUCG;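 further: selection with 25 µg/mL kanamycin versus none on LB agar overnight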
- Study conditions: 37 °C
Please enter fulfilled where self-splicing fitness (ln) is greater than or equal to -2, and not fulfilled where it is lower.

Please review the entries below; each comes with its answer.
Residue sequence: AGUUAGCAAUAUUACGGGGA
Qualitative label: not fulfilled

Residue sequence: UAACAGCAAUAUUACGAUGC
Qualitative label: not fulfilled

Residue sequence: CCGCAGCAAUAUUACGGAAG
Qualitative label: fulfilled

Residue sequence: UUACAGCAAUAUUACGGACA
Qualitative label: fulfilled

Residue sequence: GCGAAGCAAUAUUACGCUAA
Qualitative label: not fulfilled

Residue sequence: CUAAAGCAAUAUUACGUAAG
Qualitative label: fulfilled

Residue sequence: GUGUAGCAAUAUUACGUCGG
Qualitative label: not fulfilled

Residue sequence: GGCCAGCAAUAUUACGCUGC
Qualitative label: fulfilled

API: above_or_equal(metric=self-splicing fitness (ln), cutoff=-2) for item ACAAAGCAAUAUUACGAGAU
fulfilled

----------
- Experiment summary: self-splicing fitness, log relative to wild type (ln ratio); higher = more splicing; Tetrahymena group I intron in knt gene, E. coli kanamycin selection, DiMSum; sequences stand for … in CUCUCU…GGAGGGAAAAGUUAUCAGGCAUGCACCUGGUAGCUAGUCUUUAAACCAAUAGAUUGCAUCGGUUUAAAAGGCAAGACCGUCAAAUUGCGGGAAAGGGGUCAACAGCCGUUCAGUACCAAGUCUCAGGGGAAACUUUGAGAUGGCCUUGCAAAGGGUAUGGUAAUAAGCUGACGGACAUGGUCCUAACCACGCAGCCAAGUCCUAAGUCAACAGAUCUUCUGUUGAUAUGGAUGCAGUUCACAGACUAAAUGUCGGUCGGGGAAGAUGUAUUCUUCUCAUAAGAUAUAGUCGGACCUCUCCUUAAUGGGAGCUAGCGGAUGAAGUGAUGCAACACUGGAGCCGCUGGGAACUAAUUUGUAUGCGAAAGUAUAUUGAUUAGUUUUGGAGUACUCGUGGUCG
- Study conditions: 37 °C
Recorded self-splicing fitness (ln) determines the label; the label ranges are low class = under -2, middle class = from -2 up to -0.9, high class = -0.9 and over

Please review the entries below; each comes with its answer.
Residue sequence: AACCAGCAAUAUUACGAGUG
Qualitative label: high class
--
Residue sequence: GUUAAGCAAUAUUACGGGGU
Qualitative label: low class
--
Residue sequence: GAUAAGCAAUAUUACGAAUG
Qualitative label: high class
--
Residue sequence: AGAGAGCAAUAUUACGAACA
Qualitative label: low class

Which class holds ACUAAGCAAUAUUACGUAAA ?
middle class

Which class holds UCCCAGCAAUAUUACGUACU ?
high class
